# System: RNA demethylase ALKBH5 (Homo sapiens)
# Sequence (Q6P6C2 whole entry, the tested form may be a part): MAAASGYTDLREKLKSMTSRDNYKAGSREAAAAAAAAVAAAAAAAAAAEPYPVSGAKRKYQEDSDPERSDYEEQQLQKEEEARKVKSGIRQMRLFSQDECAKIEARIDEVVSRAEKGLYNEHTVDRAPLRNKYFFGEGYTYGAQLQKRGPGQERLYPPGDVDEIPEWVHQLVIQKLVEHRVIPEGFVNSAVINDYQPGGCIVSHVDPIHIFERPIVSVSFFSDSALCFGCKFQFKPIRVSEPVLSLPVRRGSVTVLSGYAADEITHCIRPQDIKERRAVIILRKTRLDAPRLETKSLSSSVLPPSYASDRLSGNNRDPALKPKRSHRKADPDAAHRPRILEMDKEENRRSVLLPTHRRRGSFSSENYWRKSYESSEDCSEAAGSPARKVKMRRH
# Assay: Inhibition of human ALKBH5 (66 to 292 residues) demethylase activity using 49 nt methylated ssDNA as substrate incubated for 2 hrs by GelRed staining based restriction endonuclease digestion assay
Measure Name: IC50

# input What value of IC50 has been recorded for this entry: O=C1OC2(c3ccc(O)cc3Oc3cc(O)ccc32)c2ccccc21
# output > 100 µM

* * *

# System: DNA oxidative demethylase ALKBH2 (Homo sapiens, UniProt Q6NS38)
# Sequence (Q6NS38 whole entry): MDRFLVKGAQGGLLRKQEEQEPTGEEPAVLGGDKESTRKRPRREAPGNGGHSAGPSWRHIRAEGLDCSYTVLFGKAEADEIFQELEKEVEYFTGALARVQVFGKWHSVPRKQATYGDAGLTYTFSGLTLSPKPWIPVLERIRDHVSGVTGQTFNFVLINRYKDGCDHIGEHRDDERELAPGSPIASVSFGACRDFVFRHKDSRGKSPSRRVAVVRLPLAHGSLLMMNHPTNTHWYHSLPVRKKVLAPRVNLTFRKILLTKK
# Assay: Inhibition of human ALKBH2 demethylase activity by restriction endonuclease digestion assay
pIC50: −log10 of the molar value.
Measure Name: pIC50

# input What value of pIC50 has been recorded for this entry: Cc1ccc(Cl)c(Nc2ccccc2C(=O)O)c1Cl
# output < 4.00
